Reported values of GI50 for individual entries
System: SF-268
assayNotes: NCI tumour cell line growth inhibition, 48 h
The source made the active and inactive calls. No stated cut-off is given here; in the data, active = GI50 up to about 1.1 µM and inactive = higher.
attributeMeasured: GI50

| molecule | experimentalValue |
| --- | --- |
| O=C(CNc1ccc2c(=S)c3ccccc3[nH]c2c1)Nc1ccccc1-c1ccccc1NC(=O)CNc1ccc2c(=S)c3ccccc3[nH]c2c1 | 22 µM (inactive) |
| COC(=O)C(Cc1ccc(N(C)C)cc1)(NC(=O)c1ccccc1)P(=O)(OC)OC (stereo not given) | > 100 µM (inactive) |
| Cc1cc(=O)nc(S(=O)(=O)NC(=S)Nc2ccc(Cl)cc2)[nH]1 | > 100 µM (inactive) |
| CCCCCCCCCCCCC(Br)C(=O)NCC(N)=O (stereo not given) | 3.42 µM (inactive) |
| Cn1c2ccccc2n2c3ccccc3c3nnc(N)c-3c12 | 0.589 µM (active) |
| C=C1C2CCC3(CCC4C5(C)CCCC4(C=[N+](CCO)C5)C3C2)C1O (stereo not given) | > 100 µM (inactive) |
| COc1ccccc1C1Nn2c(nc3ccccc3c2=O)N1c1ccc(C)cc1 (stereo not given) | 6.85 µM (inactive) |
| O=C(/C=C(O)/C(=C/C(=O)c1ccccc1)NN=C(c1ccccc1)c1ccccc1)c1ccccc1 | 30.3 µM (inactive) |
| O=CN/C=C/c1cc(O)ccc1O | 17.2 µM (inactive) |
| CC(=O)OCC(=O)O[C@@H]1[C@H]2[C@@H](OC(=O)c3ccccc3)[C@@H](C)C[C@]2(O)[C@H](OC(C)=O)[C@@]2(C)C[C@]1(OC(C)=O)C[C@H]1C(=O)C(C)(C)[C@@H](OC(C)=O)[C@@H]12 | > 25 µM (inactive) |
| COc1cc(OC)c(-c2ccc(OCc3ccccc3)c3c(OC)cc(C)cc23)c2c1C(C)=N[C@H](C)C2 | 1.78 µM (inactive) |
| N=C(N)SCCC(=O)CCSC(=N)N | > 100 µM (inactive) |
| CN(CCn1cnc2c1c(=O)n(C)c(=O)n2C)C1CCCCC1 | > 100 µM (inactive) |
| CCCCCCCCCCC(O)C1CCC(C(O)CCC(O)C2CCC(CCCCCCC[C@H](O)CC3=C[C@@H](C)OC3=O)O2)O1 (stereo not given in full) | 9.23 µM (inactive) |
| CCOC(=O)C(C)(NC(=O)c1ccc(NCc2ccc3nc(NC(=O)c4ccccc4)nc(NC(=O)c4ccccc4)c3c2)cc1)C(=O)OCC | 8.99 µM (inactive) |
| OCCCOC(c1ccccc1)(c1ccccc1)c1ccccc1 | > 100 µM (inactive) |
| Cc1cc(C(=C2C=CC(=N)C=C2)c2ccc(N)cc2)ccc1N | 0.556 µM (active) |
| CC1(C)C/N=C/C(C)(OCc2ccccc2)C(=O)NC(C)(C)C/N=C/C(C)(OCc2ccccc2)C(=O)N1 (stereo not given) | > 10 µM (inactive) |
| O=C(C1OC1c1ccc(Br)cc1O)C12CC3CC(CC(C3)C1)C2 (stereo not given) | 31.7 µM (inactive) |
| COc1cccc(/N=C/c2cc3cc(Br)ccc3nc2Cl)c1 | 20.1 µM (inactive) |
| CC1CCN(c2nnc(Cl)cc2C(=O)c2ccccc2)CC1 | 1.67 µM (inactive) |
| CC(=O)/C(=C/NC(=S)c1ccncc1)C(=O)Nc1ccccc1C | > 100 µM (inactive) |
| CC(C)(C)OC(=O)NCC(CNC(=O)OC(C)(C)C)C(N)=O | > 100 µM (inactive) |
| CN1CCC(OC(=O)Oc2ccccc2)(c2ccccc2)CC1 | 37.1 µM (inactive) |
| COc1cc2oc(-c3ccc(O)cc3)c(OC3OC(C)C(O)C(O)C3O)c(=O)c2c(O)c1OC (stereo not given) | > 100 µM (inactive) |
| Cc1cc2c(c(C(N)=O)c1C)-c1ccccc1C2=O | > 100 µM (inactive) |
| CCN(CC)CCNc1c2ccccc2nc2cccc([N+](=O)[O-])c12 | 0.012 µM (active) |
| c1ccc([P+](c2ccccc2)(c2ccccc2)c2ccc(-c3ccc([P+](c4ccccc4)(c4ccccc4)c4ccccc4)cc3)cc2)cc1 | 58.5 µM (inactive) |
| O=c1[nH]nc(Cc2ccccc2)n1/N=C\c1ccccc1 | > 10 µM (inactive) |
| CN1C(=O)C(=CNc2ccccc2[N+](=O)[O-])C(=O)N(C)C1=O | > 100 µM (inactive) |
| O=C1c2ccccc2/N=C(/c2cc3c(cc2Cl)Sc2nccn2S3(=O)=O)OS(=O)(=O)N1c1ccccc1 | 37.3 µM (inactive) |
| CC(C)C1CSC2N1C(=O)C2(OCc1ccccc1)C1CC1 (stereo not given) | > 100 µM (inactive) |
| Cc1nc2ccccc2c(=O)n1NC(=O)c1ccc(CS)cc1 | 4.06 µM (inactive) |
| N#Cc1ccc(Oc2ccccc2)cc1C#N | > 100 µM (inactive) |
| Oc1nncc2[nH]c(-c3ccccc3)cc12 | 39.4 µM (inactive) |
| CCCCCCCCCCCCCC(=O)OCC(CCS(=O)(=O)O[C@H]1CC[C@@]2(C)C(=CC[C@@H]3C2CC[C@]2(C)C(=O)CCC32)C1)OC(=O)CCCCCCCCCCCCC (stereo not given in full) | > 100 µM (inactive) |
| O=C1C(NS(=O)(=O)c2ccccc2)=C(n2ccnc2)C(=O)c2ccccc21 | > 100 µM (inactive) |
| CCCCN(CC)C(=O)C1=C(C)NC(C)=C(C(=O)N(CC)CCCC)C1 | > 100 µM (inactive) |
| Cc1ccccc1N1C(N)=C(C#N)C(C#N)(C#N)C1c1ccccc1 (stereo not given) | 20.9 µM (inactive) |
| OC/C=C(\I)CCCOCOCc1ccccc1 | 27.7 µM (inactive) |
